System: MS2 coat protein
methodSummary: apparent KD of MS2 coat protein; designed switch direction (-1 OFF switch, 1 ON switch): -1; higher = weaker reporter binding
conditions: input ligand: none
Threshold check on apparent KD of MS2 coat protein: at or above 0.05 µM gives Satisfied, strictly below gives Not satisfied.

See these solved cases before continuing.
• GGUCCGUCAGUGAGGAUAUUGAGGAGGAGGAGGGACAAGAAGGCACAUGAGGAUCACCCAUGUAGGGACGGACG [Alacar 1st] (Eterna round: R97, puzzle: Brourd's mod of Exclusion 4) = Not satisfied
• GCUUGACGAGGAUAUGCAUACACUGGAUACAGUGGAAGGUCACAUGAGGAUCACCCAUGUAGAAGGCGUCGAGC [EX2 #40] (Eterna round: R97, puzzle: Exclusion 2) = Not satisfied
• AACCUGAGGCAAAGCUUUAGGUGUACAUGAGGAUCACCCAUGUAGGAUAUGGUAGGCAAAGCUUACCAGAAGGACAUUAUGAUA [Mat - Exclusion NG 3 - Mod of JL - D52] (Eterna round: R96, puzzle: Exclusion NG 3) = Satisfied
• CUGAGUAGUCAGGAUAUGUGGUACAAAAGUACAGCAGAAGGGAUUACAUGAGGAUCACCCAUGUUUACUUCAUG [Omei Ex6 B16] (Eterna round: R97, puzzle: Exclusion 6) = Not satisfied
• CCGCGACAUGAGGAUCACCCAUGUUAGGAUAUGUGCGCCAACCAAGGAAUUGGUAGGUACAGAAGGAGCUGGGU [Eternabot (L2) Solution 97] (Eterna round: R97, puzzle: Exclusion 1) = Satisfied

Exercise: Record CAAUUCAGAGGAUAUGCGCAUAGAUAAGACUUUUUUUCUUAACAUGAGGAUCACCCAUGUAGAAGGCUGUAAAC [Ex2 #62] (Eterna round: R97, puzzle: Exclusion 2) ; criterion: apparent KD of MS2 coat protein no lower than 0.05 µM. Met?
Solution: Not satisfied

Exercise: Can GGCCUACAUGAGGAUCACCCAUGUAAGGAUAUCAAGUCGGGCUCCAAGGAAGCCCAUAUGAGAAGGUAUUUGGG [Eternabot (L2) Solution 32] (Eterna round: R97, puzzle: Exclusion 1) be said to have apparent KD of MS2 coat protein at or above 0.05 µM?
Solution: Not satisfied

Exercise: # bool: apparent KD of MS2 coat protein of GCACGGUUGGUAGGAUAUCCUUGCGAUUAGCAAGGAGAAGGACCACAUGAGGAUCACCCAUGUACCUCAAUAAUCCUUCCGUGC [Eli exng1 - 027] (Eterna round: R96, puzzle: Exclusion NG 1) >= 0.05 µM
Solution: Not satisfied

Exercise: Entry UUAAUACAUGUAGGAUAUGCGUGGCGAAGCUAUGCAGAAGGACAUGAGGAUCACCCAUGUCUCUGCGUCCGCGUACGGAUGCAA [JL Eng1 1.21 mod 5] (Eterna round: R96, puzzle: Exclusion NG 1) : is its apparent KD of MS2 coat protein no less than 0.05 µM?
Solution: Not satisfied

Exercise: API: above_or_equal(metric=apparent KD of MS2 coat protein, cutoff=0.05 µM) for item ACAAGCUAUAUGCUCGGUUACAUGAGGAUCACCCAUGUACUCAUGUUCUUAUGUACUGACACGAAAGUGUUAGUAAU [AK-miRNA-r3-1] (Eterna round: R97, puzzle: Sensor, turn-off variant 1)
Solution: Satisfied

Exercise: Is it the case that CCAGACGCUGUGAGGAUAUGAAAAGGUGCUGCUUUUUAGAAGGCACAUGAGGAUCACCCAUGUGGUACCUCGGG [Eternabot (L1) Solution 20] (Eterna round: R97, puzzle: Brourd's mod of Exclusion 4) has apparent KD of MS2 coat protein reaching or exceeding 0.05 µM?
Solution: Satisfied

Exercise: Exam item: decide whether the reported apparent KD of MS2 coat protein for ACAUGAGGAUCACCCAUGUCCGGCUGGUCUGUCUCGGCUGUCGAGGAUAUAGCACGGUAUCCGCGCUAGAAGGCGGGAGCCGGU [Aenatbe mod 87] (Eterna round: R96, puzzle: Exclusion NG 3) is at least 0.05 µM.
Solution: Not satisfied

Exercise: State whether the measured apparent KD of MS2 coat protein reaches 0.05 µM, counting equality as reaching it, for ACUGUUUGAUACCUCUUAUACAUGAGGAUCACCCAUGUUAUCGAGGAUAUGCAUUAGAGUGGUUAGCAGAAGGCGAUGUAAUUG [JR_ExcNG3_Sub032] (Eterna round: R96, puzzle: Exclusion NG 3)
Solution: Not satisfied

Exercise: Dear colleague, could you confirm whether UUGACGGCAGGAUAUACAUGAGGAUCACCCAUGUAAAUUUUUCGUUUAACUUGAAUGUGUAGAAGGGCCCAACC [Ex3 #78] (Eterna round: R97, puzzle: Exclusion 3) has apparent KD of MS2 coat protein at or above 0.05 µM?
Solution: Not satisfied

Exercise: Decide: is the reported value of apparent KD of MS2 coat protein for CCAAGAAUAGGAUAUACAACAUGCCAGCUUCUUUACAUCGCACAUGAGGAUCACCCAUGUAGAAGGGUUCUCUG [Exclusion-2-#15] (Eterna round: R97, puzzle: Exclusion 2) equal to or greater than 0.05 µM?
Solution: Satisfied

Exercise: Could you tell me if the measured apparent KD of MS2 coat protein of ACAUGCCGCGCAGGAUAUGGGACACAUGAGGAUCACCCAUGUGGUUUCAUGUCUAACCAAGCGUCCCAGAAGGGCGUGAACAUG [Ex NG2 #29] (Eterna round: R96, puzzle: Exclusion NG 2) reaches 0.05 µM or more?
Solution: Not satisfied
